test_system: Tyrosine-protein kinase Lyn (Homo sapiens) (UniProt P07948);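 further: mean percent inhibition of the LYN A splice variant of the kinase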
Sequence (P07948 2-512 limits assumed): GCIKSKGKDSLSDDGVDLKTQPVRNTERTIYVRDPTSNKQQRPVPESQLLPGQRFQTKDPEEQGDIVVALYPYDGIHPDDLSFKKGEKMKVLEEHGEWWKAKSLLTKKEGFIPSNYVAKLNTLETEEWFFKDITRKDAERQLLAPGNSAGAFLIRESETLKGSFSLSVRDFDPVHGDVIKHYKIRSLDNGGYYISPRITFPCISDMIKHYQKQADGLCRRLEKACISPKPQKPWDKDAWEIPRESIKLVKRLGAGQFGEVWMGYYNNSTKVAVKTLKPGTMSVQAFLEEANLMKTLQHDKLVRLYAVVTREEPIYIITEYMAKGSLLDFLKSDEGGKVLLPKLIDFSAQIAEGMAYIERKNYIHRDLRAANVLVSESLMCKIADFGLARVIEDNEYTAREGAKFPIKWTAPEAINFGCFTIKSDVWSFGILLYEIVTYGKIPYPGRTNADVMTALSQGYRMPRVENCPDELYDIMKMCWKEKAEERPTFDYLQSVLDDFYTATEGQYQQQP
recorded_conditions: at 1 µM
Description: GSK_PKIS: LYN A (splice variant) mean inhibition at 1 uM [Nanosyn]
As shown below, each of these compounds has a reported inhibition value.
reported_property: inhibition

mol_smiles=NS(=O)(=O)c1ccc(Nc2cc(-c3cccc(O)c3)n[nH]2)cc1 endpoint_result=8.1%
mol_smiles=Cc1ccc(O)cc1Nc1ccnc2ccc(S(C)(=O)=O)cc12 endpoint_result=96.7%
mol_smiles=CCS(=O)(=O)c1ccc(OC)c(Nc2nccc(N(C)c3ccc4c(C)n[nH]c4c3)n2)c1 endpoint_result=85%
mol_smiles=C[C@@H](Oc1cc(-n2cnc3ccc(OCC4CCN(C)CC4)cc32)sc1C(N)=O)c1ccccc1C(F)(F)F endpoint_result=18.9%
mol_smiles=Cc1ccc(C(=O)NC2CC2)cc1-c1ccc2[nH]ncc2c1 endpoint_result=-0.16%
mol_smiles=Cc1nc(-c2ccccc2)n2nc(NCCCN3CCOCC3)ncc12 endpoint_result=2.59%
mol_smiles=Cc1ccc2c(-c3ccnc(Nc4ccc5c(c4)OCCO5)n3)c(-c3ccc(C(F)(F)F)cc3)nn2n1 endpoint_result=6.17%
mol_smiles=Cc1cc(-c2ccccn2)cc(C)c1/C=C/c1cncc(-c2nn[nH]n2)c1 endpoint_result=14%
mol_smiles=COC(=O)Nc1nc2cc(Oc3ccc(NC(=O)Nc4cccc(Br)c4)cc3)ccc2[nH]1 endpoint_result=15.2%
mol_smiles=Cc1cc(O)cc(C)c1/C=C/c1cncc(C(=O)N(C)C)c1 endpoint_result=7.54%

Values were extracted from ChEMBL document CHEMBL1961873.
